Subject of test: human recombinant COX-2 (Homo sapiens, UniProt P35354)
Sequence (P35354 18-604): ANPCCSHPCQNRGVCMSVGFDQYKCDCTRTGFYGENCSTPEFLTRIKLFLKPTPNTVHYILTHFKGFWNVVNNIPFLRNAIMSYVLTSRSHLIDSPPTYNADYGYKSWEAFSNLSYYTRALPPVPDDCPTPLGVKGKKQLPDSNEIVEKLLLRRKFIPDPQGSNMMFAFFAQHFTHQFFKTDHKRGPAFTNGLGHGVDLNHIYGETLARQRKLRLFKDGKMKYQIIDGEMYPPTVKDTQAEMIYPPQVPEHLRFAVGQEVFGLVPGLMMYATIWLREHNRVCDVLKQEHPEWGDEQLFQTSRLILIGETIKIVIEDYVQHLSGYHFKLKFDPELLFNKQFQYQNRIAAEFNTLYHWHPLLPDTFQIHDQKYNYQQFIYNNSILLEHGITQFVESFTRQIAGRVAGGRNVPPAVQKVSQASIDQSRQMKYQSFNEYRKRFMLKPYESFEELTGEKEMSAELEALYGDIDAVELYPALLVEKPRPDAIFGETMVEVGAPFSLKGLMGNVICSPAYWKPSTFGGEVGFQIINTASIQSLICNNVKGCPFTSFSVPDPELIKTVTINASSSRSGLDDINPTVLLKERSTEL
Procedure details: COX (ovine) Inhibitor Screening Assay, COX-2
Protocol conditions: human recombinant COX-2; PGF2α by EIA; 18 hours of incubation
pIC50: −log10 of the molar value.
Value kind: pIC50

Compound	pIC50
COc1ccc(-c2nc3sc4c(c3c(=O)[nH]2)CCC4)cc1 [Compound 8]	5.14
O=C(Nc1nc2sc3c(c2c(=O)[nH]1)CCC3)c1ccc(F)cc1 [Compound 9]	4.26

(A) COc1ccc(Cc2nc3sc4c(c3c(=O)[nH]2)CCC4)cc1 [Compound 7]
(B) O=c1[nH]c(Cc2ccc(F)cc2)nc2sc3c(c12)CCC3 [Compound 6]
Query: // select label with min value of measured pIC50 from [ A , B ] Answer by quoting the chosen item's label.
Response: B

----------
Target chain: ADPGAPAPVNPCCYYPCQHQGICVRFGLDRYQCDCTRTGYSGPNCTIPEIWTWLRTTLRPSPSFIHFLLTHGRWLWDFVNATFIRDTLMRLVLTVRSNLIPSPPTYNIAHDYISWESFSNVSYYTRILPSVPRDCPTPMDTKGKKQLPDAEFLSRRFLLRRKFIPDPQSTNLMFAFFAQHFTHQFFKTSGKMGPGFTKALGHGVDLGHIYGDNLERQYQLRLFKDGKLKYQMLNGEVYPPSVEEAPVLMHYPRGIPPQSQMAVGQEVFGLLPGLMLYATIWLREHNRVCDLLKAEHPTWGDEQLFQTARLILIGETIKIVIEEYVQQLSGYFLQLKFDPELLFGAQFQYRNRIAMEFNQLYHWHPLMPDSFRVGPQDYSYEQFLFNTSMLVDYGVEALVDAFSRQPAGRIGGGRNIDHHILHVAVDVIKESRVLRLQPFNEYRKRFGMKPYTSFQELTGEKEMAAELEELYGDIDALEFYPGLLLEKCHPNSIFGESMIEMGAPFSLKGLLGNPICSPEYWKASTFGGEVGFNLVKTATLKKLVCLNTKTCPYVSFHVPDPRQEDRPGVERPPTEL
Value kind: IC50 (µM)

Molecule	Value kind	Endpoint result
COc1ccc(-c2nc3sc4c(c3c(=O)[nH]2)CCC4)cc1 [Compound 8]	IC50	83.8

(A) COc1ccc(Cc2nc3sc4c(c3c(=O)[nH]2)CCC4)cc1 [Compound 7]
(B) O=C(Nc1nc2sc3c(c2c(=O)[nH]1)CCC3)c1ccc(F)cc1 [Compound 9]
(C) O=c1[nH]c(Cc2ccc(F)cc2)nc2sc3c(c12)CCC3 [Compound 6]
Query: Arrange these molecules by their IC50, starting with the largest number. Rank them, then answer with their labels in that order.
Response: A, B, C

----------
Subject of test: human recombinant COX-2 (Homo sapiens)
Procedure details: COX (ovine) Inhibitor Screening Assay, COX-2
Type: biochemical
Protocol conditions: COX-1 IC50/COX-2 IC50
Value kind: SI (selectivity index, COX-1 IC50/COX-2 IC50)

(A) O=c1[nH]c(Cc2ccc(F)cc2)nc2sc3c(c12)CCC3
(B) O=C(Nc1nc2sc3c(c2c(=O)[nH]1)CCC3)c1ccc(F)cc1
(C) COc1ccc(Cc2nc3sc4c(c3c(=O)[nH]2)CCC4)cc1
(D) COc1ccc(-c2nc3sc4c(c3c(=O)[nH]2)CCC4)cc1
Query: Returns the items ordered by SI (selectivity index, COX-1 IC50/COX-2 IC50), from maximum to minimum. Rank them, then answer with their labels in that order.
Response: D, C, B, A
(D: 11.41, C: 6.98, B: 1.26, A: 0.68)
